# testSystem: UniProt:P28593
# Sequence (P28593 whole entry): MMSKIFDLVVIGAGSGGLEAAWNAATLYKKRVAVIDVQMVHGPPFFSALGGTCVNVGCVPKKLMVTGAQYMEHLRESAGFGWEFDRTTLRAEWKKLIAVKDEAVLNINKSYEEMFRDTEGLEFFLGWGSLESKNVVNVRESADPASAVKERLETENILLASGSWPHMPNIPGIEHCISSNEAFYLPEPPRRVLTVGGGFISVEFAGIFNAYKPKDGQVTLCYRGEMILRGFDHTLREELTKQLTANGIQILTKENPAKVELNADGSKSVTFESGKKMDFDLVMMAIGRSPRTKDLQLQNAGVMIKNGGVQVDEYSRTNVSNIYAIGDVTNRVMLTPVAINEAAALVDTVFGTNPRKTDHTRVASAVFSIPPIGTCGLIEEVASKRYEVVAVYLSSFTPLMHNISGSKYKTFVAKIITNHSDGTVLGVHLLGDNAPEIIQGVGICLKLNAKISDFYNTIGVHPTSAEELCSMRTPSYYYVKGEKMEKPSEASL
# testProtocol: Tested for binding affinity against trypanothione reductase from Trypanosoma cruzi
Listed here are compounds together with their documented log10(Ki).
Friendly reminder: values = log10 of Ki, unit µM.

Guide cases for log10(Ki), answers given:
1. c1ccc(CCCNCCCCN(CCCNCCCc2ccccc2)CCCc2ccccc2)cc1 :: 0.54
2. c1ccc(CCCNCCCN(CCCCN(CCCNCCCc2ccccc2)CCCc2ccccc2)CCCc2ccccc2)cc1 :: -0.21
3. NCCCCN(CCCNCCCc1ccccc1)CCCc1ccccc1.NCCCN(CCCCNCCCc1ccccc1)CCCc1ccccc1 :: 0.67
4. c1ccc(CCCN(CCCCN(CCCc2ccccc2)CCCN(CCCc2ccccc2)CCCc2ccccc2)CCCN(CCCc2ccccc2)CCCc2ccccc2)cc1 :: 1.01
5. NCCCN(CCCCN(CCCNCCCc1ccccc1)CCCc1ccccc1)CCCc1ccccc1 :: 0.14
6. c1ccc(CCCNCCCNCCCCNCCCN(CCCc2ccccc2)CCCc2ccccc2)cc1 :: 0.56

Give its log10(Ki) value. Item: "c1ccc(CCCNCCCN(CCCCN(CCCc2ccccc2)CCCN(CCCc2ccccc2)CCCc2ccccc2)CCCc2ccccc2)cc1"
-0.82

# repeat for "c1ccc(CCCNCCCNCCCCNCCCNCCCc2ccccc2)cc1"
1.09

# repeat for "NCCCNCCCCNCCCNCCCc1ccccc1"
1.58

Data origin: ChEMBL document CHEMBL1133793
